# System: MT4 cells
# assay text: Cytotoxicity toward MT4 cells
# Format: cell-based
# recorded conditions: read-out: Cytotoxicity CC50, means, n = 3
measurement name: CC50

{"molecule": "CCCCCCCCCCCCCCCC(=O)O[C@@]12C[C@@H](C)[C@@]3(O)[C@@H](C=C(CO)C[C@]4(O)C(=O)C(C)=C[C@@H]34)[C@@H]1C2(C)C [Compound 7, 12-deoxyphorbol-13-hexadecanoate]", "CC50": "> 1.7 µM"}

Query molecule follows.
Field: CC50 (MT4 cells). Entry: CCCCCCCCCCCCCC(=O)O[C@@]12C[C@@H](C)[C@@]3(O)[C@@H](C=C(CO)C[C@]4(O)C(=O)C(C)=C[C@@H]34)[C@@H]1C2(C)C [Compound 8, 12-deoxyphorbol-13-myristate]
> 1.8 µM
